molecular target: human active recombinant p38α-6His tagged (Homo sapiens, UniProt Q16539); assay: P38 Alpha Enzyme Assay (AlphaScreen, biotinylated-ATF2 substrate); type: biochemical; settings: p38 alpha enzyme inhibition; means of replicate determinations; 4 h pre-incubation at 37° C.; SD of assay 0.2-0.3 log units;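 note: 0.5 nM final p38α, reaction started with ATP and run 45 min at 37 °C, phospho-ATF2 read by antibody-based AlphaScreen, background wells quenched with EDTA before ATP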
Sequence (Q16539 whole entry): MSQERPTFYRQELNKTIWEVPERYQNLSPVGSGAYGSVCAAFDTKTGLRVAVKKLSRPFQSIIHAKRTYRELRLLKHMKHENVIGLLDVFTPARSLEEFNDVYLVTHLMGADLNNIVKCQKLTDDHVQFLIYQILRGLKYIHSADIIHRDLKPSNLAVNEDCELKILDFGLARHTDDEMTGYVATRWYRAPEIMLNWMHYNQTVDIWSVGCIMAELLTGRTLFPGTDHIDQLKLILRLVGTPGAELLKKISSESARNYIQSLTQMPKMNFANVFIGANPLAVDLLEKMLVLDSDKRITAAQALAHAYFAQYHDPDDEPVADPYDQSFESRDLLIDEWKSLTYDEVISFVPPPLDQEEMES
Structures can show the parent of a compound that is named as a salt.
For each record, write down the corresponding pIC50.
Answers are plain numbers.

Here is how some compounds turned out for pIC50.
- compound: "CCNCCOc1ccccc1C(C)(C)Nc1nccn(-c2cc(C(=O)NC3CC3)cc(F)c2C)c1=O"
  pIC50: 10.1
- compound: "Cc1ccc(C(=O)NC2CC2)cc1-n1ccnc(N[C@H](CC(=O)NC2CC2)c2ccccc2)c1=O"
  pIC50: 7.6
- compound: "Cc1ccc(C(=O)NC2CC2)cc1-n1ccnc(-c2ccccc2)c1=O"
  pIC50: 6.6
- compound: "Cc1cccc([C@H](Nc2nccn(-c3cc(C(=O)NC4CC4)ccc3C)c2=O)[C@@H](C)CN2CCCC2)c1"
  pIC50: 8.8
- compound: "CC[C@@H](Nc1nccn(-c2cc(C(=O)NOC)ccc2C)c1=O)c1ccccc1 [Example 113, trifluoroacetate]"
  pIC50: 9.8

Parameter requested: pIC50. Apply to each item below.
1. CONC(=O)c1ccc(C)c(-n2ccnc(N3CCCC3)c2=O)c1
2. Cc1c(F)cc(C(=O)NC2CC2)cc1-n1ccnc(NC2(c3ccccc3OCCNC(C)C)CC2)c1=O
3. Cc1ccc(C(=O)NC2CC2)cc1-n1ccnc(N[C@@H](c2ccccc2)[C@@H](C)CN2CCN(C(C)C)CC2)c1=O

1. 7.5
2. 10.1
3. 8.8
